Item-by-item account of MIC A. baumannii ATCC19606 […] 8.5
Test system: A. baumannii ATCC19606
MEASUREMENT PARAMETERS: Table S2; […] MH, pH 8.5
Where a SMILES comes first, the peptide text is derived from it. [ ]: non-standard residue; d: D form. Nleu = CC(C)CNCC(=O)O; Nlys = NCCCCNCC(=O)O
Kindly answer with a numeric value in µg/mL, unit omitted.

Some solved cases for reference:
CC(C)C[C@H](NC(=O)CN(CCCCN)C(=O)[C@H](CC(C)C)NC(=O)[C@H](CC(C)C)NC(=O)[C@H](CCCCN)NC(=O)[C@H](CC(C)C)NC(=O)[C@H](CC(C)C)NC(=O)[C@H](CCCCN)NC(=O)CNCCCCN)C(=O)N[C@@H](CC(C)C)C(=O)N(CC(N)=O)CC(C)C [EB2, kKLLKLLkLLl] (H-[Nlys]KLLKLL[Nlys]LL[Nleu]-NH2) = 8
CC(C)C[C@H](NC(=O)[C@H](CC(C)C)NC(=O)[C@H](CC(C)C)NC(=O)[C@@H](CCCCN)NC(=O)[C@H](CC(C)C)NC(=O)[C@H](CC(C)C)NC(=O)[C@@H](CCCCN)NC(=O)[C@H](CC(C)C)NC(=O)[C@H](CC(C)C)NC(=O)[C@@H](CCCCN)NC(=O)[C@H](N)CCCCN)C(N)=O [ln69, kkLLkLLkLLL, reference compound] (H-[dK][dK]LL[dK]LL[dK]LLL-NH2) = 2
CC(C)C[C@H](NC(=O)[C@H](CC(C)C)NC(=O)[C@H](CC(C)C)NC(=O)[C@H](CCCCN)NC(=O)[C@H](CC(C)C)NC(=O)[C@H](CC(C)C)NC(=O)CN(CCCCN)C(=O)[C@H](CC(C)C)NC(=O)[C@H](CC(C)C)NC(=O)CN(CCCCN)C(=O)CNCCCCN)C(N)=O [EB6, kkLLkLLKLLL] (H-[Nlys][Nlys]LL[Nlys]LLKLLL-NH2) = 2
CC(C)C[C@H](NC(=O)[C@H](CCCCN)NC(=O)[C@@H](N)CCCCN)C(=O)N[C@@H](CC(C)C)C(=O)N[C@@H](CCCCN)C(=O)N(CC(=O)N(CC(=O)N(CCCCN)CC(=O)N(CC(=O)N(CC(=O)N(CC(N)=O)CC(C)C)CC(C)C)CC(C)C)CC(C)C)CC(C)C [EB4, KKLLKllklll] (H-KKLLK[Nleu][Nleu][Nlys][Nleu][Nleu][Nleu]-NH2) = 16
CC(C)C[C@H](NC(=O)[C@H](CC(C)C)NC(=O)[C@H](CCCCN)NC(=O)[C@@H](N)CCCCN)C(=O)N[C@@H](CCCCN)C(=O)N[C@@H](CC(C)C)C(=O)N[C@@H](CC(C)C)C(=O)N[C@@H](CCCCN)C(=O)N(CC(=O)N(CC(=O)N(CC(N)=O)CC(C)C)CC(C)C)CC(C)C [EB3] (H-KKLLKLLK[Nleu][Nleu][Nleu]-NH2) = 16

For this molecule ( CC(C)C[C@H](NC(=O)CN(CC(C)C)C(=O)[C@H](CC(C)C)NC(=O)CN(CCCCN)C(=O)[C@H](CC(C)C)NC(=O)CN(CC(C)C)C(=O)[C@H](CCCCN)NC(=O)CN(CC(C)C)C(=O)[C@H](CC(C)C)NC(=O)CN(CCCCN)C(=O)[C@@H](N)CCCCN)C(N)=O [EB9, KkLlKlLkLlL] (H-K[Nlys]L[Nleu]K[Nleu]L[Nlys]L[Nleu]L-NH2) ), measured MIC A. baumannii ATCC19606 […] 8.5 is 8

For this molecule ( CC(C)CN(CC(N)=O)C(=O)CN(CC(C)C)C(=O)CN(CC(C)C)C(=O)CN(CCCCN)C(=O)CN(CC(C)C)C(=O)CN(CC(C)C)C(=O)CN(CCCCN)C(=O)CN(CC(C)C)C(=O)CN(CC(C)C)C(=O)CN(CCCCN)C(=O)CNCCCCN [EB11, kkllkllklll] (H-[Nlys][Nlys][Nleu][Nleu][Nlys][Nleu][Nleu][Nlys][Nleu][Nleu][Nleu]-NH2) ), measured MIC A. baumannii ATCC19606 […] 8.5 is 16
